Biological target: T1, PSMA Fab (006 PSMA Fab)
T1 construct: also called Anti-PSMA Fab; anti-PSMA Fab
Experiment: clonal phage ELISA; biotinylated PSMA Fab on neutravidin plate pre-incubated with competitor PSMA antigen; anti-M13-HRP detection
Where no end group is shown, it is not given here.
readout.label: Phage binding ELISA signal, Anti-PSMA Fab in presence of PSMA antigen

Would you please look over these solved cases?
                                     binder  assay_result
0  EARWCTPPWMCAYM (cysteine pairing not given here; also: displayed on bacteriophage by fusion to pIII) [Phage-2315]        0.0724
1               VDKWCIPAWMCVSA [Phage-2328]        0.0715
2               FVNWCIPTWMCPEI [Phage-2314]         0.233

API: the following record is the query input.
Entry LEKWCMPPWMCSGT (cysteine pairing not given here; also: displayed on bacteriophage by fusion to pIII) [Phage-2313] — recorded Phage binding ELISA signal, Anti-PSMA Fab in presence of PSMA antigen = 0.0701
